- assay_remarks: activity coefficient (dimensionless); of the first substance listed, at infinite dilution; xn = mol fraction of the nth substance listed
- condition_info: 348.15 K; 101 kPa; Liquid; Chromatography; x1 = 0
measure_name: activity coefficient

compound	activity coefficient
CCCCO [butan-1-ol] + CCCC[N+]1(C)CCCC1.N#C[B-](C#N)(C#N)C#N	1.44

[1] c1ccccc1 [benzene] + CCCC[N+]1(C)CCCC1.N#C[B-](C#N)(C#N)C#N
[2] C=CCCC [1-pentene] + CCCC[N+]1(C)CCCC1.N#C[B-](C#N)(C#N)C#N
Pick one, 1 or 2 : lowest reported activity coefficient. Please reply using the label of the selected record.
1

[I] C1CCCCCC1 [cycloheptane] + CCCC[N+]1(C)CCCC1.N#C[B-](C#N)(C#N)C#N
[II] CC(C)OC(C)C [diisopropyl ether] + CCCC[N+]1(C)CCCC1.N#C[B-](C#N)(C#N)C#N
Pick one, I or II : lowest reported activity coefficient. Please reply using the label of the selected record.
II
(II: 5.82, I: 8.85)

---

- assay_remarks: activity coefficient (dimensionless); of the first substance listed, at infinite dilution; xn = mol fraction of the nth substance listed
- condition_info: 368.15 K; 101 kPa; Liquid; Chromatography; x1 = 0
measure_name: activity coefficient

Examples with their reported activity coefficient follow.
molecule	activity coefficient
CCCOCCC [dipropyl ether] + CCCC[N+]1(C)CCCC1.N#C[B-](C#N)(C#N)C#N	5.26
CCC(C)CC [3-methylpentane] + CCCC[N+]1(C)CCCC1.N#C[B-](C#N)(C#N)C#N	11.2

[A] C1CCCC1 [cyclopentane] + CCCC[N+]1(C)CCCC1.N#C[B-](C#N)(C#N)C#N
[B] CCCCCC [hexane] + CCCC[N+]1(C)CCCC1.N#C[B-](C#N)(C#N)C#N
[C] c1ccccc1 [benzene] + CCCC[N+]1(C)CCCC1.N#C[B-](C#N)(C#N)C#N
[D] O [water] + CCCC[N+]1(C)CCCC1.N#C[B-](C#N)(C#N)C#N
Number of molecules to sort: 4. Sort criterion: activity coefficient, ascending. Put the labels in the order asked and list them.
C, D, A, B
(C: 0.887, D: 1.28, A: 4.72, B: 12.3)

---

- assay_remarks: activity coefficient (dimensionless); of the first substance listed, at infinite dilution; xn = mol fraction of the nth substance listed
- condition_info: 318.15 K; 101 kPa; Liquid; Chromatography; x1 = 0
measure_name: activity coefficient

[a] CCCCCCC [heptane] + CCCC[N+]1(C)CCCC1.N#C[B-](C#N)(C#N)C#N
[b] c1ccccc1 [benzene] + CCCC[N+]1(C)CCCC1.N#C[B-](C#N)(C#N)C#N
activity coefficient comparison. Which is larger, a or b ? Please reply using the label of the selected record.
a
(a: 23, b: 0.81)

---

- assay_remarks: activity coefficient (dimensionless); of the first substance listed, at infinite dilution; xn = mol fraction of the nth substance listed
- condition_info: 328.15 K; 101 kPa; Liquid; Chromatography; x1 = 0
measure_name: activity coefficient

molecule	activity coefficient
C=CCCCCCC [oct-1-ene] + CCCC[N+]1(C)CCCC1.N#C[B-](C#N)(C#N)C#N	14.6
C#CCCCCC [1-heptyne] + CCCC[N+]1(C)CCCC1.N#C[B-](C#N)(C#N)C#N	3.5
O [water] + CCCC[N+]1(C)CCCC1.N#C[B-](C#N)(C#N)C#N	1.87
CC(C)OC(C)C [diisopropyl ether] + CCCC[N+]1(C)CCCC1.N#C[B-](C#N)(C#N)C#N	5.94
Cc1cccc(C)c1 [1,3-dimethylbenzene] + CCCC[N+]1(C)CCCC1.N#C[B-](C#N)(C#N)C#N	1.56

[a] CCc1ccccc1 [ethylbenzene] + CCCC[N+]1(C)CCCC1.N#C[B-](C#N)(C#N)C#N
[b] C1CCCCC1 [cyclohexane] + CCCC[N+]1(C)CCCC1.N#C[B-](C#N)(C#N)C#N
[c] COC(C)(C)C [2-methoxy-2-methylpropane] + CCCC[N+]1(C)CCCC1.N#C[B-](C#N)(C#N)C#N
Arrange the 3 molecules from largest to smallest activity coefficient. Put the labels in the order asked and list them.
b, c, a
